System: biotinyl-Leu-oxazolone
MEASUREMENT_NOTES: self-aminoacylation, catalytic enhancement (BLO) (fold over background); higher = more active; k-Seq, kA / k0A0; sequences stand for … in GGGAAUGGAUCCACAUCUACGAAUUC…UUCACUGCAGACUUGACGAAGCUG
Fewer inactive variants are shown than the library holds.
Give fulfilled when the value for self-aminoacylation is at least 3. Give not fulfilled when it is less.

SEQUENCE_DATA: GUUCUUCAAACAAUCGGUCUG [Fam1A.1 aminoacylation ribozyme variant]
ASSIGNED_CLASS: not fulfilled

SEQUENCE_DATA: AUUCACCUCGGUCAUCGGUUG [Fam2.2 aminoacylation ribozyme variant]
ASSIGNED_CLASS: not fulfilled

SEQUENCE_DATA: AUCACCCUGGUCAUCGAGUUA [Fam2.1 aminoacylation ribozyme variant]
ASSIGNED_CLASS: not fulfilled

SEQUENCE_DATA: AUUACUCUGGUCAUCGAGUAA [Fam2.1 aminoacylation ribozyme variant]
ASSIGNED_CLASS: not fulfilled

SEQUENCE_DATA: ACUACCCUGAUCAUCGAGUGA [Fam2.1 aminoacylation ribozyme variant]
ASSIGNED_CLASS: fulfilled

* * *

Quick reference for self-aminoacylation among some sequences
Test system: biotinyl-Ile-oxazolone
MEASUREMENT_NOTES: self-aminoacylation, catalytic enhancement (BIO) (fold over background); higher = more active; k-Seq, kA / k0A0; sequences stand for … in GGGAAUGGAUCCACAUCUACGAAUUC…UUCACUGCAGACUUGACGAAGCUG
Fewer inactive variants are shown than the library holds.

SEQUENCE_DATA: AUUACCCUGGUCAACGAGGGA [Fam2.1 aminoacylation ribozyme variant]
self-aminoacylation: 1.49

SEQUENCE_DATA: CUACUUCAAACAAUCGGGCUU [Fam1A.1 aminoacylation ribozyme variant]
self-aminoacylation: 1.55

SEQUENCE_DATA: CCACACUUCCAGAAAUCGGUC [Fam1B.1 aminoacylation ribozyme variant]
self-aminoacylation: 0.933

SEQUENCE_DATA: AGUACCCUGGCCAUCGAGUGA [Fam2.1 aminoacylation ribozyme variant]
self-aminoacylation: 2.53

SEQUENCE_DATA: CUACUGCAAACUAUCGGUCUG [Fam1A.1 aminoacylation ribozyme variant]
self-aminoacylation: 1.02

SEQUENCE_DATA: AAGUUUGCUAAGAGACGCAAG [Fam3.1 aminoacylation ribozyme variant]
self-aminoacylation: 0.661

SEQUENCE_DATA: AUUCCCCUGGUCAUGGAGUGA [Fam2.1 aminoacylation ribozyme variant]
self-aminoacylation: 2.92

SEQUENCE_DATA: AAGUCUGCUAAUAUUCGCAAG [Fam3.1 aminoacylation ribozyme variant]
self-aminoacylation: 1.11

SEQUENCE_DATA: CCACACUUAAAGCAAUAGGUC [Fam1B.1 aminoacylation ribozyme variant]
self-aminoacylation: 0.67

SEQUENCE_DATA: CCACACUGCAGGCAAUCGGUC [Fam1B.1 aminoacylation ribozyme variant]
self-aminoacylation: 1.44

SEQUENCE_DATA: AUUACUCUGGACAUCGAGUGA [Fam2.1 aminoacylation ribozyme variant]
self-aminoacylation: 2.93

SEQUENCE_DATA: AUUAACAUGGUCAUCGAGUGA [Fam2.1 aminoacylation ribozyme variant]
self-aminoacylation: 3.41

SEQUENCE_DATA: AUUCACCUAGGUCGACGGGUG [Fam2.2 aminoacylation ribozyme variant]
self-aminoacylation: 1.88

SEQUENCE_DATA: AUCCACCUGGGUCAUCGGGUG [Fam2.2 aminoacylation ribozyme variant]
self-aminoacylation: 4.48

SEQUENCE_DATA: CAGUUUGAUAAUAGUCGCAAG [Fam3.1 aminoacylation ribozyme variant]
self-aminoacylation: 1.4

SEQUENCE_DATA: AAGUUUCGUAAUAGUCGCAAG [Fam3.1 aminoacylation ribozyme variant]
self-aminoacylation: 1.63

SEQUENCE_DATA: AUUACCCUGGCAAUCGAGUGA [Fam2.1 aminoacylation ribozyme variant]
self-aminoacylation: 2.78

SEQUENCE_DATA: AUUAACCAAGGUCAUCGGGUG [Fam2.2 aminoacylation ribozyme variant]
self-aminoacylation: 3.81

SEQUENCE_DATA: AUUAAGCUAGGUCAUCGGGUG [Fam2.2 aminoacylation ribozyme variant]
self-aminoacylation: 3.11

SEQUENCE_DATA: AUUCACCUCGGUCAUCGGGUU [Fam2.2 aminoacylation ribozyme variant]
self-aminoacylation: 2.15

SEQUENCE_DATA: AUUGCCCUGGUCAUUGAGUGA [Fam2.1 aminoacylation ribozyme variant]
self-aminoacylation: 3.72

SEQUENCE_DATA: CGACACUUCAAGCAGUCGGUC [Fam1B.1 aminoacylation ribozyme variant]
self-aminoacylation: 1.25

SEQUENCE_DATA: CCACACUUCAAGGAAUCGGCC [Fam1B.1 aminoacylation ribozyme variant]
self-aminoacylation: 1.89

SEQUENCE_DATA: AAGUUUGCUAAGAUUCGCAAG [Fam3.1 aminoacylation ribozyme variant]
self-aminoacylation: 0.986

SEQUENCE_DATA: CCACACUUCAAGCAAACAGUC [Fam1B.1 aminoacylation ribozyme variant]
self-aminoacylation: 0.816

SEQUENCE_DATA: AUUACCCGGGUCAUCGAGCGA [Fam2.1 aminoacylation ribozyme variant]
self-aminoacylation: 2.08

SEQUENCE_DATA: CUGCUUCAAACAAUUGGUCUG [Fam1A.1 aminoacylation ribozyme variant]
self-aminoacylation: 0.789

SEQUENCE_DATA: CAACACUUCAAGCCAUCGGUC [Fam1B.1 aminoacylation ribozyme variant]
self-aminoacylation: 1.35

SEQUENCE_DATA: AUUAACCUAGGUCAUGGGGUG [Fam2.2 aminoacylation ribozyme variant]
self-aminoacylation: 2.28

SEQUENCE_DATA: AAGUUUGCUAAUAGUCACUAG [Fam3.1 aminoacylation ribozyme variant]
self-aminoacylation: 1.08

SEQUENCE_DATA: AUUCAGCUAGGUAAUCGGGUG [Fam2.2 aminoacylation ribozyme variant]
self-aminoacylation: 2.69

SEQUENCE_DATA: AGGUUUGCUAAUAGUCGAAAG [Fam3.1 aminoacylation ribozyme variant]
self-aminoacylation: 1.2

SEQUENCE_DATA: AAGUUCGUUAAUAGUCGCAAG [Fam3.1 aminoacylation ribozyme variant]
self-aminoacylation: 1.93

SEQUENCE_DATA: CUACUUCGAAGAAUCGGUCUG [Fam1A.1 aminoacylation ribozyme variant]
self-aminoacylation: 0.875

SEQUENCE_DATA: AUUCACCUGGAUCAUCGGGUG [Fam2.2 aminoacylation ribozyme variant]
self-aminoacylation: 2.55
